Just for reference, paper PMC7819943 is where these values come from.

# System Tested: OsSMF1 (Oryza sativa, UniProt Q6ZLB0 1-436)
# Sequence: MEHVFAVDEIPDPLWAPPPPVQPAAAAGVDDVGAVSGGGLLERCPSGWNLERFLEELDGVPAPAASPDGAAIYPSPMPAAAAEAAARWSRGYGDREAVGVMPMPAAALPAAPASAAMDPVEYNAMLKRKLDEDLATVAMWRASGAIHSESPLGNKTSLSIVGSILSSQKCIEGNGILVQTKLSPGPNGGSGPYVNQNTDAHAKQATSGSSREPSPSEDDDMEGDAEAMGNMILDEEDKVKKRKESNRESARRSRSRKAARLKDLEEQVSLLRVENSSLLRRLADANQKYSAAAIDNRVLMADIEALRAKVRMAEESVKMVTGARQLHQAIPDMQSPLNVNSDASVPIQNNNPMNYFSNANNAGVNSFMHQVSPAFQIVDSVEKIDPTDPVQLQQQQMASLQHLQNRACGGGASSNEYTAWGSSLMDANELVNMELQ
# Measurement Description: protein-binding microarray (RPBM); PBS, 2% BSA, 51.3 ng/ul salmon testes DNA, 50 uM zinc acetate, 200 nM TF, 25 C, 1 h; high values mean tight binding
# Measurement Setup: protein: recombinant; tags: N-terminal polyhistidine and DsRed monomer fusion (pET32a); chain copies: 2; label: CyDye5-dUTP incorporated in the synthesized complementary strand; 3' TTTTT single-stranded linker to array surface; dsDNA, one strand shown
The full ranking holds about 39,000 sequences; the median of “fluorescence intensity (a.u.)” is about 4,300, and the highest 2% start at about 39,000. The entries come from a sample that favours the highest values as a whole.
Each entry below carries its reported binding signal.

- Macromolecule Sequence: "AGATTTTGGGTGTGTTTGGTTGCTTGCATTGTTTTAGTCTCGGAGTCACCTAGTGCAG"
  binding signal: "3300 fluorescence intensity (a.u.)"
- Macromolecule Sequence: "GGGCCCAGCAGGTTCCTAGTAGACTTCGTCGTAGTGGGACCGGAGTCACCTAGTGCAG"
  binding signal: "8310 fluorescence intensity (a.u.)"
- Macromolecule Sequence: "TAGTGTTTGTTTTGGGTTGTGCTCAGCTTAGCTCTGGTGTCGGAGTCACCTAGTGCAG"
  binding signal: "39800 fluorescence intensity (a.u.)"
- Macromolecule Sequence: "CCAAGGTAAGATGAAGCAGCAGCATTTGCATTAAACTATCCGGAGTCACCTAGTGCAG"
  binding signal: "60100 fluorescence intensity (a.u.)"
- Macromolecule Sequence: "GGGGAGGAGGACGAGTAACAGACGTGGTGGCCGCCGAGGCCGGAGTCACCTAGTGCAG"
  binding signal: "3490 fluorescence intensity (a.u.)"
- Macromolecule Sequence: "AGTAGTATTGGCTTGGGGTGTTGCCACGTCATCACCTGGTCGGAGTCACCTAGTGCAG"
  binding signal: "55000 fluorescence intensity (a.u.)"
- Macromolecule Sequence: "AGCCAAAGCATTTGCCATCCGATGAGGGCGTACTATTAAACGGAGTCACCTAGTGCAG"
  binding signal: "28000 fluorescence intensity (a.u.)"
- Macromolecule Sequence: "TAGGTTAGTGGTGGCTGGGTCGTCACGTCATTGCATTGCACGGAGTCACCTAGTGCAG"
  binding signal: "3270 fluorescence intensity (a.u.)"
- Macromolecule Sequence: "CAAAAGTTTTGACGTGTCACATCGGATATACGGACACACACGGAGTCACCTAGTGCAG"
  binding signal: "10800 fluorescence intensity (a.u.)"
